# Test system: WT HIV-1
# method-summary: Anti-HIV-1 activity in MT-4 cells infected with HIV-1
# Format: cell-based
# stated-conditions: Human immunodeficiency virus 1, MT4
Binary label based on EC50 with cut-off 1 µM: below gives 1, not below gives 0.

// below: answered molecules
molecule=Cn1c(Cn2ccc(C(F)(F)F)c(Oc3cccnc3Br)c2=O)n[nH]c1=O category_label=0
molecule=Cn1c(Cn2ccc(C(F)(F)F)c(Oc3ccc(Br)nc3)c2=O)n[nH]c1=O category_label=0
molecule=Cc1cc(Oc2c(C(F)(F)F)ccn(Cc3n[nH]c(=O)n3C)c2=O)c2ccccc2n1 category_label=0
molecule=Cc1cc(Oc2c(C(F)(F)F)ccn(Cc3n[nH]c(=O)n3C)c2=O)c2c(Cl)c(F)ccc2n1 category_label=0
molecule=Cn1c(Cn2ccc(C(F)(F)F)c(Oc3ccc4ncccc4c3)c2=O)n[nH]c1=O category_label=0
molecule=Cn1c(Cn2ccc(C(F)(F)F)c(Oc3cccnc3)c2=O)n[nH]c1=O category_label=0
molecule=COc1cncc(Oc2c(C(F)(F)F)ccn(Cc3n[nH]c(=O)n3C)c2=O)c1 category_label=0
molecule=CCc1nc(C)ccc1Oc1c(C(F)(F)F)ccn(Cc2n[nH]c(=O)n2C)c1=O category_label=0
molecule=Cc1cc(Oc2c(C(F)(F)F)ccn(Cc3n[nH]c(=O)n3C)c2=O)cnc1Br category_label=0
molecule=Cn1c(Cn2ccc(C(F)(F)F)c(Oc3cncc4ccccc34)c2=O)n[nH]c1=O category_label=1

Now look at this entry.
Query :: Please indicate whether the reported EC50 of `Cc1ccc(Oc2c(C(F)(F)F)ccn(Cc3n[nH]c(=O)n3C)c2=O)c(Br)n1` is strictly below 1 µM.
Result :: 0

----------
# Test system: HIV-1 mutant Y188L
# method-summary: Anti-HIV-1 efficacy against mutant Y188L in MT-4 cells
# Type: cell-based
# stated-conditions: Human immunodeficiency virus 1, MT4, read-out: EC50 Y188L
assay-metric: EC50 (µM)
Answer format: numeric, µM implied, no suffix.

Before answering, review these 5 worked examples.
compound="Cn1c(Cn2ccc(C(F)(F)F)c(Oc3cccc4cnccc34)c2=O)n[nH]c1=O [7w]" target_or_test_system="HIV-1 mutant Y188L" assay_metric=EC50 observed_measurement=5.35
compound="Cn1c(Cn2ccc(C(F)(F)F)c(Oc3cncc(Br)c3)c2=O)n[nH]c1=O [7e]" target_or_test_system="HIV-1 mutant Y188L" assay_metric=EC50 observed_measurement=39
compound="Cn1c(Cn2ccc(C(F)(F)F)c(Oc3cncc(Cl)c3)c2=O)n[nH]c1=O [7a]" target_or_test_system="HIV-1 mutant Y188L" assay_metric=EC50 observed_measurement=122
compound="Cc1cc(C#N)cc(C)c1Oc1nc(Nc2ccc(C#N)cc2)nc(N)c1Br [ETR, etravirine, reference compound]" target_or_test_system="HIV-1 mutant Y188L" assay_metric=EC50 observed_measurement=0.018
compound="Cn1c(Cn2ccc(C(F)(F)F)c(Oc3cc(Cl)cc(C#N)c3)c2=O)n[nH]c1=O [DOR, doravirine, reference compound]" target_or_test_system="HIV-1 mutant Y188L" assay_metric=EC50 observed_measurement=0.5

Query :: // returns reported EC50 for input Cc1cncc(Oc2c(C(F)(F)F)ccn(Cc3n[nH]c(=O)n3C)c2=O)c1 [7h]
Result :: 196

----------
# method-summary: Cytotoxicity in mock-infected MT-4 cell cultures
# Format: cell-based
# stated-conditions: human, mock-infected MT-4 cells
assay-metric: CC50 (µM)
Answer format: numeric, µM implied, no suffix.

compound=Cn1c(Cn2ccc(C(F)(F)F)c(Oc3cncc4ccccc34)c2=O)n[nH]c1=O observed_measurement=277
compound=Cc1cc(Oc2c(C(F)(F)F)ccn(Cc3n[nH]c(=O)n3C)c2=O)c2ccccc2n1 observed_measurement=233
compound="Cn1c(Cn2ccc(C(F)(F)F)c(Oc3cc(Cl)cc(C#N)c3)c2=O)n[nH]c1=O [DOR, doravirine, reference compound]" observed_measurement=293

Switching to the query record.
Query :: // returns reported CC50 for input `Cn1c(Cn2ccc(C(F)(F)F)c(Oc3cccnc3Cl)c2=O)n[nH]c1=O`
Result :: 290

----------
# method-summary: Aqueous solubility
# Format: physicochemical
# stated-conditions: pH 2, aqueous buffer
assay-metric: solubility (µg/mL)
Answer format: numeric, µg/mL implied, no suffix.

Query :: // returns reported solubility for input `Cn1c(Cn2ccc(C(F)(F)F)c(Oc3cccc4cnccc34)c2=O)n[nH]c1=O`
Result :: 4470

----------
# method-summary: Cytotoxicity in mock-infected MT-4 cell cultures
# Assay type: cell-based
# stated-conditions: human, mock-infected MT-4 cells
assay-metric: CC50 (µM)
Answer format: numeric, µM implied, no suffix.

Before answering, review these 2 worked examples.
molecule_smiles=Cc1cc(Oc2c(C(F)(F)F)ccn(Cc3n[nH]c(=O)n3C)c2=O)c2c(Cl)c(F)ccc2n1 observed_measurement=81.5
molecule_smiles=Cc1ccc(Oc2c(C(F)(F)F)ccn(Cc3n[nH]c(=O)n3C)c2=O)c(Br)n1 observed_measurement=253

Switching to the query record.
Query :: // returns reported CC50 for input `Cn1c(Cn2ccc(C(F)(F)F)c(Oc3ccc4nc(Cl)ccc4c3)c2=O)n[nH]c1=O`
Result :: 172

----------
# method-summary: PK study in Sprague-Dawley rats
# Type: in vivo
# stated-conditions: rat, plasma, po, 5 mg/kg, MRT0‒t, 5.0 mg/kg (p.o.)
assay-metric: MRT (h)
Answer format: numeric, h implied, no suffix.

Query :: // returns reported MRT for input `Cn1c(Cn2ccc(C(F)(F)F)c(Oc3cccc4cnccc34)c2=O)n[nH]c1=O`
Result :: 1.17

----------
# target-or-test-system: CYP3A4 (Homo sapiens, UniProt P08684)
# Sequence (P08684 whole entry): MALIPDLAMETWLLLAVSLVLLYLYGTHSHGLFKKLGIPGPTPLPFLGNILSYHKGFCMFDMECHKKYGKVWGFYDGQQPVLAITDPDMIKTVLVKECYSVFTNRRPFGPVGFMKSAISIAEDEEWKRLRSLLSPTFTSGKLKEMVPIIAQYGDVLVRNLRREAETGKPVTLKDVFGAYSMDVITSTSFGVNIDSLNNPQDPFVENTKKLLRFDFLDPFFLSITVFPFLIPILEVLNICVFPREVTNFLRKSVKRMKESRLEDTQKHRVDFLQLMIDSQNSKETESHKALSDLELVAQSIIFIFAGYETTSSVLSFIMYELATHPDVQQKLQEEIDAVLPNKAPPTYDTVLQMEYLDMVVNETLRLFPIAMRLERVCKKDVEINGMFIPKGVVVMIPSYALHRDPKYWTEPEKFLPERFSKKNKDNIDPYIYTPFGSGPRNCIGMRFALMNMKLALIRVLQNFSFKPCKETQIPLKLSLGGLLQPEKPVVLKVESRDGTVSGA
assay-metric: IC50

Query :: For the record `Cn1c(Cn2ccc(C(F)(F)F)c(Oc3cccc4cnccc34)c2=O)n[nH]c1=O` , what value of IC50 is listed for CYP3A4 (Homo sapiens, UniProt P08684)?
Result :: > 50 µM

----------
# Tested on: K103N, L100I, E138K, Y181C, and K103N + Y181C
# method-summary: Anti-HIV-1 efficacy against mutant panel
# Type: cell-based
# stated-conditions: Human immunodeficiency virus 1, read-out: EC50 value range
assay-metric: EC50

Query :: // returns reported EC50 for input Cn1c(Cn2ccc(C(F)(F)F)c(Oc3cccc4cnccc34)c2=O)n[nH]c1=O [7w]
Result :: 35 to 140 nM

----------
# method-summary: PK study in Sprague-Dawley rats
# Format: in vivo
# stated-conditions: rat, plasma, po, 5 mg/kg, MRT0‒∞, 5.0 mg/kg (p.o.)
assay-metric: MRT (h)
Answer format: numeric, h implied, no suffix.

Query :: // returns reported MRT for input `Cn1c(Cn2ccc(C(F)(F)F)c(Oc3cccc4cnccc34)c2=O)n[nH]c1=O`
Result :: 1.42

----------
# System: WT HIV-1
# method-summary: Anti-HIV-1 activity in MT-4 cells infected with HIV-1
# Assay type: cell-based
# stated-conditions: selectivity index, the ratio of CC50/EC50, WT HIV-1
assay-metric: SI

Before answering, review these 6 worked examples.
compound=COc1cncc(Oc2c(C(F)(F)F)ccn(Cc3n[nH]c(=O)n3C)c2=O)c1 observed_measurement=>43
compound=Cn1c(Cn2ccc(C(F)(F)F)c(Oc3ccc(Br)nc3)c2=O)n[nH]c1=O observed_measurement=>1
compound=Cn1c(Cn2ccc(C(F)(F)F)c(Oc3cccc4ccncc34)c2=O)n[nH]c1=O observed_measurement=>244
compound=Cc1ncc(Oc2c(C(F)(F)F)ccn(Cc3n[nH]c(=O)n3C)c2=O)cn1 observed_measurement=>1
compound=Cn1c(Cn2ccc(C(F)(F)F)c(Oc3cc(Cl)c4ncccc4c3)c2=O)n[nH]c1=O observed_measurement=<1
compound=Cn1c(Cn2ccc(C(F)(F)F)c(Oc3cccnc3Cl)c2=O)n[nH]c1=O observed_measurement=67.97

Query :: // returns reported SI for input `Cc1ncccc1Oc1c(C(F)(F)F)ccn(Cc2n[nH]c(=O)n2C)c1=O`
Result :: >49

----------
# method-summary: Cytotoxicity in mock-infected MT-4 cell cultures
# Type: cell-based
# stated-conditions: human, mock-infected MT-4 cells
assay-metric: CC50

Before answering, review these 2 worked examples.
compound="Cn1c(Cn2ccc(C(F)(F)F)c(Oc3ccc(Br)nc3)c2=O)n[nH]c1=O [7g]" observed_measurement="> 280 µM"
compound="Cn1c(Cn2ccc(C(F)(F)F)c(Oc3cnc4ccccc4c3)c2=O)n[nH]c1=O [7ag]" observed_measurement="> 250 µM"

Query :: // returns reported CC50 for input Cc1ccc(Oc2c(C(F)(F)F)ccn(Cc3n[nH]c(=O)n3C)c2=O)cn1 [7j]
Result :: > 328 µM

Query :: // returns reported CC50 for input Cn1c(Cn2ccc(C(F)(F)F)c(Oc3cccnc3)c2=O)n[nH]c1=O [7s]
Result :: > 367 µM

Query :: // returns reported CC50 for input Cn1c(Cn2ccc(C(F)(F)F)c(Oc3ccc(C(F)(F)F)nc3)c2=O)n[nH]c1=O [7r]
Result :: > 250 µM

Query :: // returns reported CC50 for input Cc1cc(Oc2c(C(F)(F)F)ccn(Cc3n[nH]c(=O)n3C)c2=O)c2cccc(C)c2n1 [7ac]
Result :: 151 µM

Query :: // returns reported CC50 for input Cn1c(Cn2ccc(C(F)(F)F)c(Oc3cncc(Br)c3)c2=O)n[nH]c1=O [7e]
Result :: > 280 µM

Query :: // returns reported CC50 for input Cc1cc(Oc2c(C(F)(F)F)ccn(Cc3n[nH]c(=O)n3C)c2=O)c2cccc(F)c2n1 [7aa]
Result :: 220 µM

Query :: // returns reported CC50 for input Cn1c(Cn2ccc(C(F)(F)F)c(Oc3cnc(Cl)c(Cl)c3)c2=O)n[nH]c1=O [7d]
Result :: 248 µM

Query :: // returns reported CC50 for input Cc1cc(Oc2c(C(F)(F)F)ccn(Cc3n[nH]c(=O)n3C)c2=O)cnc1Br [7o]
Result :: > 272 µM

Query :: // returns reported CC50 for input COc1cncc(Oc2c(C(F)(F)F)ccn(Cc3n[nH]c(=O)n3C)c2=O)c1 [7q]
Result :: > 250 µM

Query :: // returns reported CC50 for input Cn1c(Cn2ccc(C(F)(F)F)c(Oc3cncc(Cl)c3)c2=O)n[nH]c1=O [7a]
Result :: > 311 µM

Hey, just so you know, these numbers are from paper PMC10692386.
